What follows is a collection of IC50 values obtained with mirolysin (Tannerella forsythia).
Just the number in µM, nothing appended.

# compound, test.target, IC50 / µM
rows = [
    ("NCc1cccc(-c2ccco2)c1 [cpd 10]", "mirolysin (Tannerella forsythia)", 6.6),
]

Please look at the following compound next.
Challenge: Data request, read-out IC50, for NCc1cccc2nsnc12 [cpd 9]
Response given: 2.3

====

test.target: mirolysin (Tannerella forsythia, UniProt A0A0F7IPS1)
Sequence (A0A0F7IPS1 entry or part of it): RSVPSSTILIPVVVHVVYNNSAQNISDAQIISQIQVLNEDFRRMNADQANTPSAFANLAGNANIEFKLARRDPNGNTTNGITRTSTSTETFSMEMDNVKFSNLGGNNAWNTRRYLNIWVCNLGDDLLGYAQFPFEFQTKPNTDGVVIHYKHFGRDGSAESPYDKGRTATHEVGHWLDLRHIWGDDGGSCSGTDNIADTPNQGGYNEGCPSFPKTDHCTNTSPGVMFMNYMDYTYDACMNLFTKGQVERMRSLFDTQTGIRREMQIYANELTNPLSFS
value.type: pKi
Quick note: pKi values are minus log10 of concentrations in mol/L.

# line.notation, val
records = [
    ("NCc1cccc2nsnc12", 5.49),
]

Now consider the entry below.
Challenge: I would be grateful if you could share the reported pKi for NCc1cccc(-c2ccco2)c1 .
Response given: 4.66
